Value source: paper PMC5055850

biological target: FPR2 (Homo sapiens); assay: Ca2+ flux assay in FPR2-HL60 cells; format: cell-based; conditions: read-out: FPR2-HL60 Efficacy
Sequence (P25090 whole entry): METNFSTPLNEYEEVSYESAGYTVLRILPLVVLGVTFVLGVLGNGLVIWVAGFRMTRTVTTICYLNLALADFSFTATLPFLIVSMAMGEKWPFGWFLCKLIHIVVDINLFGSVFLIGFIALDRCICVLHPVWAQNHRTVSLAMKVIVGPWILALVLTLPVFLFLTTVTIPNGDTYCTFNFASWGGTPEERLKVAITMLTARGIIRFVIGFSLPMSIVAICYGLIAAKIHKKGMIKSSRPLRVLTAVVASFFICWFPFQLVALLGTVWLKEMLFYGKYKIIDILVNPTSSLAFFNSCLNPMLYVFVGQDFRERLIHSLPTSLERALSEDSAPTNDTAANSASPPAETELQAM
Field 'label' (enum: TRUE / FALSE). Set to TRUE when Emax is strictly under 60%; else FALSE.

Sample answers from the record:
[
  {
    "COMPOUND": "C=Cc1c(C)nn(CC(=O)Nc2ccc(Br)cc2)c(=O)c1Nc1cccc(OC)c1",
    "CATEGORY": "FALSE"
  },
  {
    "COMPOUND": "CCC(=O)c1c(C)nn(CC(=O)Nc2ccc(Br)cc2)c(=O)c1Nc1cccc(OC)c1",
    "CATEGORY": "FALSE"
  },
  {
    "COMPOUND": "COc1cccc(Nc2cc(C)cn(CC(=O)Nc3ccc(Br)cc3)c2=O)c1 [Compound 29b]",
    "CATEGORY": "FALSE"
  },
  {
    "COMPOUND": "CCOC(=O)c1c(C)nn(CC(=O)Nc2ccc(Br)cc2)c(=O)c1Nc1cccc(OC)c1 [Compound 19b]",
    "CATEGORY": "FALSE"
  },
  {
    "COMPOUND": "CCCC(=O)c1c(C)nn(CC(=O)Nc2ccc(Br)cc2)c(=O)c1Nc1cccc(OC)c1",
    "CATEGORY": "FALSE"
  },
  {
    "COMPOUND": "COc1cccc(Nc2c(-c3ccn(C)n3)c(C)nn(CC(=O)Nc3ccc(Br)cc3)c2=O)c1 [Compound 27a]",
    "CATEGORY": "FALSE"
  },
  {
    "COMPOUND": "CCc1c(C)nn(CC(=O)Nc2ccc(Br)cc2)c(=O)c1Nc1cccc(OC)c1 [Compound 13a]",
    "CATEGORY": "TRUE"
  },
  {
    "COMPOUND": "COc1ccc(Nc2c(-c3ccn(C)n3)c(C)nn(CC(=O)Nc3ccc(Br)cc3)c2=O)cc1 [Compound 27b]",
    "CATEGORY": "FALSE"
  }
]

# input is_below(Emax, 60%) for COc1cccc(Nc2cc(C)nn(CC(=O)Nc3ccc(Br)cc3)c2=O)c1 [Compound 29a] ?
# output FALSE

# input is_below(Emax, 60%) for CCCCc1c(C)nn(CC(=O)Nc2ccc(Br)cc2)c(=O)c1Nc1cccc(OC)c1 [Compound 13c] ?
# output TRUE

# input is_below(Emax, 60%) for `Cc1nn(CC(=O)Nc2ccc(Br)cc2)c(=O)c(N)c1C(=O)C=CN(C)C` ?
# output TRUE

# input is_below(Emax, 60%) for `Cc1nn(CC(=O)Nc2ccc(Br)cc2)c(=O)c(N)c1-c1ccn(C)n1` ?
# output TRUE
